Where do the numbers come from? From ChEMBL document CHEMBL1201861.

test system: NCI-H460; assay: cells; type: functional, cell-based; conditions: Homo sapiens;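 further: cell viability assay scoring growth inhibition of human NCI-H460 cells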
Description: SANGER: Inhibition of human NCI-H460 cell growth in a cell viability assay.
pIC50: −log10 of the molar value.
I'd appreciate it if you could supply pIC50 values for the items below.

# input Tell us which pIC50 value is on record for COc1cc(Nc2c(C#N)cnc3cc(OCCCN4CCN(C)CC4)c(OC)cc23)c(Cl)cc1Cl
# output < 5.70

# input Tell us which pIC50 value is on record for C[C@]1(c2nc3c(C(N)=O)cccc3[nH]2)CCCN1
# output < 5.30

# input Tell us which pIC50 value is on record for C[C@]12O[C@H](C[C@]1(O)CO)n1c3ccccc3c3c4c(c5c6ccccc6n2c5c31)CNC4=O
# output 5.93

---

test system: RH-18; experiment: cells; format: functional, cell-based; settings: Homo sapiens, Rh18;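 further: growth inhibition of human RH-18 cells, read out with a cell viability assay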
Description: SANGER: Inhibition of human RH-18 cell growth in a cell viability assay.
pIC50: −log10 of the molar value.
property-measured: pIC50

# input Supply pIC50 measured with RH-18 for Cn1cc(/C=C2\C(=O)Nc3cccnc32)c2ccccc21 .
# output < 5.70

# input Supply pIC50 measured with RH-18 for Cn1c(=O)n(-c2ccc(C(C)(C)C#N)cc2)c2c3cc(-c4cnc5ccccc5c4)ccc3ncc21 [DACTOLISIB] .
# output 6.40

# input Supply pIC50 measured with RH-18 for CCCS(=O)(=O)Nc1ccc(F)c(C(=O)c2c[nH]c3ncc(Cl)cc23)c1F [PLX-4720] .
# output < 5.00

---

system: RPMI-8866; experiment: cells; assay type: functional, cell-based; settings: Homo sapiens
Description: SANGER: Inhibition of human RPMI-8866 cell growth in a cell viability assay.
property-measured: pIC50
In plain terms, pIC50 is the concentration in mol/L turned into minus its base-10 logarithm.

# input Tell us which pIC50 value is on record for CC(=O)c1c(C)c2cnc(Nc3ccc(N4CCNCC4)cn3)nc2n(C2CCCC2)c1=O [PALBOCICLIB]
# output 5.80

# input Tell us which pIC50 value is on record for COc1cc(Nc2c(C#N)cnc3cc(OCCCN4CCN(C)CC4)c(OC)cc23)c(Cl)cc1Cl [BOSUTINIB]
# output 5.90

# input Tell us which pIC50 value is on record for CC(C)=CC[C@@H](O)C1=CC(=O)c2c(O)ccc(O)c2C1=O [SHIKONIN]
# output 6.27

---

system: SCLC-21H; assay: cells; assay type: functional, cell-based; conditions: Homo sapiens
Description: SANGER: Inhibition of human SCLC-21H cell growth in a cell viability assay.
pIC50: −log10 of the molar value.
property-measured: pIC50

# input Tell us which pIC50 value is on record for C/C(O)=C(\C#N)C(=O)Nc1cc(Br)ccc1Br
# output < 4.80

# input Tell us which pIC50 value is on record for Cc1nc(Nc2ncc(C(=O)Nc3c(C)cccc3Cl)s2)cc(N2CCN(CCO)CC2)n1 [DASATINIB]
# output < 5.89

# input Tell us which pIC50 value is on record for Cc1ccc(NC(=O)c2cccc(C(C)(C)C#N)c2)cc1Nc1ccc2ncn(C)c(=O)c2c1
# output < 5.40

# input Tell us which pIC50 value is on record for CCNC(=O)c1noc(-c2cc(C(C)C)c(O)cc2O)c1-c1ccc(CN2CCOCC2)cc1 [LUMINESPIB]
# output < 6.59

# input Tell us which pIC50 value is on record for Fc1cc(-c2cc[nH]/c(=N/c3ccc(-n4cnc(N5CCOCC5)n4)cc3)n2)cc(N2CCOCC2)c1
# output < 5.29

# input Tell us which pIC50 value is on record for Cc1[nH]c(/C=C2\C(=O)Nc3ccc(S(=O)(=O)Cc4c(Cl)cccc4Cl)cc32)c(C)c1C(=O)N1CCC[C@@H]1CN1CCCC1 [PHA-665752]
# output < 5.70

# input Tell us which pIC50 value is on record for C/C=C(/C)C(=O)O[C@H]1C(C)=C2[C@H]([C@@H]1OC(=O)CCCCCCC)[C@@](C)(OC(C)=O)C[C@H](OC(=O)CCC)[C@@]1(O)[C@H]2OC(=O)[C@@]1(C)O [THAPSIGARGIN]
# output 8.77
